Values compiled from paper PMC12416549.

# assay-system: T1, TNFR1 (Homo sapiens, UniProt P19438)
# T1 chain: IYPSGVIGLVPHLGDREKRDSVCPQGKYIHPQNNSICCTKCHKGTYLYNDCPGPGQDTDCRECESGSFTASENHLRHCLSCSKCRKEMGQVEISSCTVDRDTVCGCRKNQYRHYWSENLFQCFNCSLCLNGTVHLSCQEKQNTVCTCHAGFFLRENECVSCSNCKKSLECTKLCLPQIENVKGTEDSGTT
# experiment-summary: yeast display SC50
# Lookup of reported apparent Kd (screen) keyed by entry
Express the result in nM but write the number alone.

INSERT INTO results (binder, recorded_measurement) VALUES
  ('V100Q (designed binder) MTLQELLREEALRRAEAEAFRYALELLAEKFPEQKEYLLDLAEEIESQIRSLSGVDVEDVRKFLDKEWAWVKELLAEHPAELAEVEAARAARLAELRAEQEAKVAA', 0.718),
  ('A19C (designed binder) MTLQELLREEALRRAEAECFRYALELLAEKFPEQKEYLLDLAEEIESQIRSLSGVDVEDVRKFLDKEWAWVKELLAEHPAELAEVEAARAARLAELRAEVEAKVAA', 0.49),
  ('Y22R (designed binder) MTLQELLREEALRRAEAEAFRRALELLAEKFPEQKEYLLDLAEEIESQIRSLSGVDVEDVRKFLDKEWAWVKELLAEHPAELAEVEAARAARLAELRAEVEAKVAA', 0.593);

Here's the next entry for you.
*Q* Which apparent Kd (screen) value belongs to A91D (designed binder) MTLQELLREEALRRAEAEAFRYALELLAEKFPEQKEYLLDLAEEIESQIRSLSGVDVEDVRKFLDKEWAWVKELLAEHPAELAEVEAARADRLAELRAEVEAKVAA ?
*A* 0.49
